Values compiled from patent US4119710A.

- Protocol: acute toxicity in mice (LD50, Litchfield and Wilcoxon)
- Assay conditions: mouse, in vivo, iv, groups of 10, i.v., deaths within 14 days (Table II), read-out: LD50
Structures can show the parent of a compound that is named as a salt.
Class membership depends on LD50 at 336 h alone; the intervals are b0: < 40 mg/kg; b1: ≥ 40 mg/kg and < 60 mg/kg; b2: ≥ 60 mg/kg

Please review the following examples before continuing.
                                   compound  group_label
0  CC(C)(C)NCC(O)c1cc(F)c(N)c(Br)c1.Cl (stereo not shown)           b0
1  CCC(C)(C)NCC(O)c1ccc(N)c(C#N)c1 (stereo not shown)           b2

Enquiry: # bin lookup: classify Cl.Nc1c(F)cc(C(O)CNC2CCC2)cc1Br (stereo not shown) by its LD50 at 336 h
Return: b0

Enquiry: # bin lookup: classify CC(C)(C)NCC(O)c1cc(Cl)c(N)c(C(F)(F)F)c1 (stereo not shown) by its LD50 at 336 h
Return: b0

Enquiry: # bin lookup: classify CCCNCC(O)c1cc(Cl)c(N)c(C#N)c1.Cl (stereo not shown) by its LD50 at 336 h
Return: b1

Enquiry: # bin lookup: classify Cl.Nc1c(F)cc(C(O)CNC2CC2)cc1I (stereo not shown) by its LD50 at 336 h
Return: b1

Enquiry: # bin lookup: classify CC(Cc1ccc2c(c1)OCO2)NCC(O)c1cc(Cl)c(N)c(C#N)c1 (stereo not shown) [V, hydrochloride] by its LD50 at 336 h
Return: b0

====

- System under test: β2 -receptors (Cavia porcellus, UniProt Q8K4Z4)
- Construct: tested on anesthetized guinea pigs; from tissue; host or cells: living anesthetized guinea pig, airways (Konzett-Rossler)
- Sequence (Q8K4Z4 whole entry): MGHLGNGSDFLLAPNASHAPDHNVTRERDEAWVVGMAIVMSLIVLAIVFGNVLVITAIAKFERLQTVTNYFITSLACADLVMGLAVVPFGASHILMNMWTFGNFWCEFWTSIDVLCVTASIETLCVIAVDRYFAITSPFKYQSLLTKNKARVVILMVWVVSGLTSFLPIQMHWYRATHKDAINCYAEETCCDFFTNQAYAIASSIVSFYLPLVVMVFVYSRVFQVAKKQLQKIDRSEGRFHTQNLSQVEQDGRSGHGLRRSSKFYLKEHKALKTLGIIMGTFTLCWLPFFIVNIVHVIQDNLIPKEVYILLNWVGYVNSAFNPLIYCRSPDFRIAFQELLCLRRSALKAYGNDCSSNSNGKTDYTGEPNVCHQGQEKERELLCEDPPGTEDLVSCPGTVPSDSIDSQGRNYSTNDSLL
- Protocol: β2-mimetic activity: antagonism to acetylcholine bronchospasm in anesthetized guinea pigs (Konzett-Rossler)
- Type: in vivo
- Assay conditions: guinea pig, iv, bronchospasm by 20 γ/kg acetylcholine i.v., test compound i.v., graphic extrapolation (Table I)
Please assign criterion not met whenever ED50 is at or above 0.02 mg/kg, and criterion met whenever it is below.

Enquiry: Given CCCNCC(O)c1cc(Cl)c(N)c(C#N)c1.Cl (centres unmarked) [Q] , is recorded ED50 strictly lower than 0.02 mg/kg?
Return: criterion not met

Enquiry: Given Cl.N#Cc1cc(C(O)CNC2CCCC2)cc(Cl)c1N (centres unmarked) [U] , is recorded ED50 strictly lower than 0.02 mg/kg?
Return: criterion met

Enquiry: Given CC(C)(C)NCC(O)c1ccc(N)c(F)c1.Cl (centres unmarked) [E] , is recorded ED50 strictly lower than 0.02 mg/kg?
Return: criterion met

Enquiry: Given CC(C)(C)NCC(O)c1cc(F)c(N)c(C#N)c1.Cl (centres unmarked) [N] , is recorded ED50 strictly lower than 0.02 mg/kg?
Return: criterion met

====

- Protocol: acute toxicity in mice (LD50, Litchfield and Wilcoxon)
- Assay conditions: mouse, in vivo, iv, groups of 10, i.v., deaths within 14 days (Table II), read-out: LD50
The reader will find reported LD50 at 336 h values listed item by item below.

Past entries and their recorded results:
                                   molecule    reported
0  CCC(C)NCC(O)c1cc(Cl)c(N)c(C#N)c1.Cl (stereo not drawn)  40.4 mg/kg
1  CC(C)(C)NCC(O)c1cc(Cl)c(N)c(C#N)c1 (stereo not drawn)    60 mg/kg

Enquiry: For the molecule shown here, CC(C)(C)NCC(O)c1cc(F)c(N)c(C#N)c1.Cl (stereo not drawn) , give the reported LD50 at 336 h.
Return: 58.4 mg/kg

Enquiry: For the molecule shown here, CC(C)(CO)NCC(O)c1cc(Cl)c(N)c(C#N)c1 (stereo not drawn) , give the reported LD50 at 336 h.
Return: 81.8 mg/kg

Enquiry: For the molecule shown here, CC(C)(C)NCC(O)c1cc(Br)c(N)c([N+](=O)[O-])c1 (stereo not drawn) , give the reported LD50 at 336 h.
Return: 35.8 mg/kg

Enquiry: For the molecule shown here, Nc1c(Cl)cc(C(O)CNC2CCC2)cc1C(F)(F)F (stereo not drawn) , give the reported LD50 at 336 h.
Return: 36.3 mg/kg

Enquiry: For the molecule shown here, CC(C)(C)NCC(O)c1ccc(N)c(F)c1.Cl (stereo not drawn) , give the reported LD50 at 336 h.
Return: 69.2 mg/kg

Enquiry: For the molecule shown here, Cl.N#Cc1cc(C(O)CNC2CCCC2)cc(Cl)c1N (stereo not drawn) , give the reported LD50 at 336 h.
Return: 39.1 mg/kg

Enquiry: For the molecule shown here, CC(C)(C)NCC(O)c1cc(C#N)c(N)c(C#N)c1.Cl (stereo not drawn) , give the reported LD50 at 336 h.
Return: 166 mg/kg

Enquiry: For the molecule shown here, CC(C)(C)NCC(O)c1cc(F)c(N)c(Cl)c1.Cl (stereo not drawn) , give the reported LD50 at 336 h.
Return: 35.1 mg/kg

Enquiry: For the molecule shown here, CCC(C)(C)NCC(O)c1cc(Cl)c(N)c(C#N)c1.Cl (stereo not drawn) , give the reported LD50 at 336 h.
Return: 33.7 mg/kg

Enquiry: For the molecule shown here, CC(C)(C)N1COC(c2cc(F)c(N)c(Br)c2)C1.Cl.Cl (stereo not drawn) , give the reported LD50 at 336 h.
Return: 27.2 mg/kg

Enquiry: For the molecule shown here, CC(C)(C)NCC(O)c1cc(Cl)c(N)c([N+](=O)[O-])c1 (stereo not drawn) , give the reported LD50 at 336 h.
Return: 42.4 mg/kg

Enquiry: For the molecule shown here, Cl.N#Cc1cc(C(O)CNC2CCC2)cc(Br)c1N (stereo not drawn) , give the reported LD50 at 336 h.
Return: 38.5 mg/kg

Enquiry: For the molecule shown here, Cl.Nc1c(F)cc(C(O)CNC2CC2)cc1Cl (stereo not drawn) , give the reported LD50 at 336 h.
Return: 57 mg/kg

Enquiry: For the molecule shown here, Br.N#Cc1cc(C(O)CNC2CCC2)ccc1N (stereo not drawn) , give the reported LD50 at 336 h.
Return: 61.8 mg/kg

Enquiry: For the molecule shown here, CC(C)(C)NCC(O)c1cc(Br)c(N)c(C#N)c1.Cl (stereo not drawn) , give the reported LD50 at 336 h.
Return: 67 mg/kg

Enquiry: For the molecule shown here, CC(C)NCC(O)c1cc(F)c(N)c(C#N)c1.Cl (stereo not drawn) , give the reported LD50 at 336 h.
Return: 66.4 mg/kg
